test system: BDF1 mice, P1081 chloroleukemia ip, survival T/C; assay: NCI In Vivo Anticancer Drug Screen. Data for tumor model P1081 Chloroleukemia (intraperitoneal) in B6D2F1 (BDF1) mice; details: endpoint: mean survival time; dose: 1.25 mg/kg/injection; schedule: Q01DX Z (ip); vehicle: carboxymethylcellulose (CMC); higher = longer survival
Inconclusive results and toxic doses are left out.
reported-endpoint: T/C

1. NC(Cc1ccc(N(CCCl)CCCl)cc1)C(=O)O (stereo not given)
115 % of control
2. CCN(CC)c1ccc2cc3ccc(=[N+](CC)CC)cc-3oc2c1
108 % of control
3. COC12C(COC(N)=O)C3=C(C(=O)C(C)=C(N)C3=O)N1CC1C2N1C (stereo not given)
107 % of control
4. CC(CCC(C)OS(C)(=O)=O)OS(C)(=O)=O (stereo not given)
95 % of control
5. Nc1ncnc2c1ccn2C1OC(CO)C(O)C1O (stereo not given)
88 % of control

====

system: BDF1 mice, P1081 chloroleukemia ip, survival T/C; assay: NCI In Vivo Anticancer Drug Screen. Data for tumor model P1081 Chloroleukemia (intraperitoneal) in B6D2F1 (BDF1) mice; conditions: endpoint: mean survival time; dose: 125.0 mg/kg/injection; schedule: Q01DX Z (sc); vehicle: steriod suspending solution; higher = longer survival
Toxic doses and inconclusive results are not listed.
In this section, each of the molecules is paired with its reported T/C.
reported-endpoint: T/C

1. C[C@]12CCC(=O)C=C1CC[C@@H]1[C@@H]2CC[C@@]2(C)[C@H]1CC[C@]2(C)O
101 % of control
2. CC/C(=C(/CC)c1ccc(O)cc1)c1ccc(O)cc1
88 % of control
3. CC[C@@H](c1ccc(O)cc1)[C@@H](CC)c1ccc(O)cc1
104 % of control
4. C[C@]12CCC(=O)C[C@H]1CC[C@@H]1[C@@H]2CC[C@@]2(C)[C@H]1CC[C@]2(C)O
100 % of control

====

test system: BDF1 mice, P1081 chloroleukemia ip, survival T/C; assay: NCI In Vivo Anticancer Drug Screen. Data for tumor model P1081 Chloroleukemia (intraperitoneal) in B6D2F1 (BDF1) mice; conditions: endpoint: mean survival time; dose: 125.0 mg/kg/injection; schedule: Q01DX Z (ip); vehicle: carboxymethylcellulose (CMC)
Inconclusive results and toxic doses are left out. How the source made its calls: active means survival T/C of 150% or more; inactive means T/C below 125% in these data.
Labels: active, inactive

1. O=c1[nH]c(=O)n(C2CC(O)C(CO)O2)cc1I (configuration not stated)
inactive
2. OCC1OC(n2cnc3c(=S)nc[nH]c32)C(O)C1O (configuration not stated)
active
3. OCC1OC(n2cnc3c(Cl)ncnc32)C(O)C1O (configuration not stated)
inactive
4. O=c1[nH]c(=O)n(C2CC(O)C(CO)O2)cc1Br (configuration not stated)
inactive
5. O=CCC(O)C(O)C(O)CO (configuration not stated)
inactive
6. CCn1cnc2c(=S)nc[nH]c21
inactive
7. O=CN(O)CC(=O)O
inactive

====

system: BDF1 mice, P1081 chloroleukemia ip, survival T/C; test: NCI In Vivo Anticancer Drug Screen. Data for tumor model P1081 Chloroleukemia (intraperitoneal) in B6D2F1 (BDF1) mice; conditions: endpoint: mean survival time; dose: 12.5 mg/kg/injection; schedule: Q01DX Z (ip); vehicle: carboxymethylcellulose (CMC); higher = longer survival
Toxic doses and inconclusive results are not listed.
Measured T/C by item
reported-endpoint: T/C

1. C[n+]1c2ccccc2nc2c(N)cc(N)cc21
110 % of control
2. CN(C)c1ccc(Nc2c3ccccc3nc3ccccc23)cc1
88 % of control
3. C[N+](C)(C)c1ncnc2nc[nH]c12
100 % of control
4. O=C(O)CCCc1ccc(N(CCCl)CCCl)cc1
107 % of control
5. CN(Cc1cnc2nc(N)nc(N)c2n1)c1c(Cl)cc(C(=O)NC(CCC(=O)O)C(=O)O)cc1Cl (stereo not drawn)
101 % of control
6. CS(=O)(=O)OCCCl
98 % of control
7. CCCSc1ncnc2nc[nH]c12
122 % of control
8. CN(N=O)C(=O)NC(C=O)C(O)C(O)C(O)CO (stereo not drawn)
102 % of control
